Target: FXIa (Homo sapiens, UniProt P03951)
Sequence (P03951 388-625 limits assumed): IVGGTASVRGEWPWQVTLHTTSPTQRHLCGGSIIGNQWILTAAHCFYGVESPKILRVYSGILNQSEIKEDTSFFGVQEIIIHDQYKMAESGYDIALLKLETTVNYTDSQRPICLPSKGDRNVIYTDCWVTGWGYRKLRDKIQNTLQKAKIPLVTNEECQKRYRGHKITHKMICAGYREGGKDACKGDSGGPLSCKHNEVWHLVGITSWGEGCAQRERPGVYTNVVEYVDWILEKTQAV
Sequence (P03951 19-387 partner limits assumed): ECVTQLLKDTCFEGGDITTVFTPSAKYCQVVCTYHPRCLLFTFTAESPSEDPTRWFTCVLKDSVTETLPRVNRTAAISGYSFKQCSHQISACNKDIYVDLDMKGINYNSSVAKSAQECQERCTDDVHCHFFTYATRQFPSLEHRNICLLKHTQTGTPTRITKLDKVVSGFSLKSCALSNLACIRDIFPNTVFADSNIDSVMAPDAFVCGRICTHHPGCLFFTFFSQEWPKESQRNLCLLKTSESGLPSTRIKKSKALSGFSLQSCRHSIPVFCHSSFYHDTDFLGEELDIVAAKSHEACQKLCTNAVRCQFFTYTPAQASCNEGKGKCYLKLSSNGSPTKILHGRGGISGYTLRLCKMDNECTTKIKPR
Experiment: Time-dependent potency determination against FXIa
Assay type: biochemical
Conditions: 10 min preincubation
pIC50: −log10 of the molar value.
value-kind: pIC50

Prompt line: Write pIC50 of D-Phe-Pro-Arg-chloromethylketone [Compound 23, reference compound] ; system used: FXIa (Homo sapiens, UniProt P03951)
Response line: < 4.40

###

Biological target: FXIa (Homo sapiens, UniProt P03951)
Experiment: Time-dependent potency determination against FXIa
Type: biochemical
Conditions: 10 min preincubation
Entries and their IC50

# annotated cases, reported IC50 shown
CC1(C)OB(C(NC(=O)c2cnn(Cc3ccc(Cn4cccn4)cc3)c2)c2cccc(Cl)c2)OC1(C)C (stereo not drawn); > 40 µM
Cc1ccc(C(CC(=O)c2cnn(Cc3ccc(Cn4cccn4)cc3)c2)B2OC(C)(C)C(C)(C)O2)c(F)c1 (stereo not drawn); > 40 µM
Cc1ccc(CNC(=O)c2cnn(Cc3ccc(Cn4cccn4)cc3)c2)c(F)c1; > 40 µM
CC1(C)OB(C(CC(=O)c2cnn(Cc3ccc(Cn4cccn4)cc3)c2)c2cccc(Cl)c2)OC1(C)C (stereo not drawn); > 40 µM
Cc1ccc(C(NC(=O)c2cnn(Cc3ccc(Cn4cccn4)cc3)c2)B2OC(C)(C)C(C)(C)O2)c(F)c1 (stereo not drawn); 16.5 µM

# ---- query compound ----
Prompt line: Supply recorded IC50 for `O=C(NCc1cccc(Cl)c1)c1cnn(Cc2ccc(Cn3cccn3)cc2)c1` here.
Response line: > 40 µM

###

Readings of pIC50 for the listed compounds
Target: Plasmin (Homo sapiens)
Sequence (P00747 581-810 limits assumed, species assumed): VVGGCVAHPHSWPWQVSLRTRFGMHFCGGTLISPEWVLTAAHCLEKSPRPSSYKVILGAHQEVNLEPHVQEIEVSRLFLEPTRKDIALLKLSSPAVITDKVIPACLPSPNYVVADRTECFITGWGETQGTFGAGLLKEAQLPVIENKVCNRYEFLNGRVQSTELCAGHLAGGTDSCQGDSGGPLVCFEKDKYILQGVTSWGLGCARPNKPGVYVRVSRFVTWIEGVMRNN
Sequence (P00747 97-580 partner limits assumed, species assumed): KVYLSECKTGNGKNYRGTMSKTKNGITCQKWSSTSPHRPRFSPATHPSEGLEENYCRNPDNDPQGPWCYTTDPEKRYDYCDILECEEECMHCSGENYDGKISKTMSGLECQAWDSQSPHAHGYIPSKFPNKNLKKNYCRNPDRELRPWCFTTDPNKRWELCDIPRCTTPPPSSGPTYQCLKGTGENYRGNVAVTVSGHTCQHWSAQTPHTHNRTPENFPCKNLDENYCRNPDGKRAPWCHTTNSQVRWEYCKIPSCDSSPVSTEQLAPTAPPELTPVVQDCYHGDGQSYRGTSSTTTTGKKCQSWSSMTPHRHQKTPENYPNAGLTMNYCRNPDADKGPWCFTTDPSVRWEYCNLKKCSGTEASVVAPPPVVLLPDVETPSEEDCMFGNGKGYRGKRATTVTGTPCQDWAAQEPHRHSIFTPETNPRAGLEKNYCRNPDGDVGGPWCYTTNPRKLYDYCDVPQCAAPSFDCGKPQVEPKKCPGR
Experiment: Time-dependent potency determination against plasmin
Conditions: Plasmin IC50, 60 min preincubation
pIC50: −log10 of the molar value.

Past entries and their recorded results:
CC1(C)OB(C(NC(=O)c2cnn(Cc3ccc(Cn4cccn4)cc3)c2)c2cccc(Cl)c2)OC1(C)C (stereo not drawn); < 4.40
Cc1ccc(CNC(=O)c2cnn(Cc3ccc(Cn4cccn4)cc3)c2)c(F)c1; < 4.40
CC1(C)OB(C(CC(=O)c2cnn(Cc3ccc(Cn4cccn4)cc3)c2)c2cccc(Cl)c2)OC1(C)C (stereo not drawn); < 4.40
Cc1ccc(C(NC(=O)c2cnn(Cc3ccc(Cn4cccn4)cc3)c2)B2OC(C)(C)C(C)(C)O2)c(F)c1 (stereo not drawn); 4.92
O=C(NCc1cccc(Cl)c1)c1cnn(Cc2ccc(Cn3cccn3)cc2)c1; < 4.40

Prompt line: Give a short answer stating reported pIC50 for Cc1ccc(C(CC(=O)c2cnn(Cc3ccc(Cn4cccn4)cc3)c2)B2OC(C)(C)C(C)(C)O2)c(F)c1 (stereo not drawn) .
Response line: < 4.40

###

Target: FXIa (Homo sapiens, UniProt P03951)
Assay: Time-dependent potency determination against FXIa
Type: biochemical
Conditions: 60 min preincubation
value-kind: IC50

Prompt line: Item D-Phe-Pro-Arg-chloromethylketone [Compound 23, reference compound] : provide IC50
Response line: > 40 µM

###

Target: UniProt:P00747
Experiment: Time-dependent potency determination against plasmin
Conditions: Plasmin IC50, 1 min preincubation
pIC50: −log10 of the molar value.
value-kind: pIC50

Consider the reported pIC50 for these compounds:
Cc1ccc(C(CC(=O)c2cnn(Cc3ccc(Cn4cccn4)cc3)c2)B2OC(C)(C)C(C)(C)O2)c(F)c1 (stereo not drawn) [Compound 32]; < 4.40
CC1(C)OB(C(CC(=O)c2cnn(Cc3ccc(Cn4cccn4)cc3)c2)c2cccc(Cl)c2)OC1(C)C (stereo not drawn) [Compound 31]; < 4.40

Prompt line: Entry O=C(NCc1cccc(Cl)c1)c1cnn(Cc2ccc(Cn3cccn3)cc2)c1 [Compound 24] needs its pIC50 filled in; supply it.
Response line: < 4.40

Prompt line: Give pIC50 for the following compound: Cc1ccc(C(NC(=O)c2cnn(Cc3ccc(Cn4cccn4)cc3)c2)B2OC(C)(C)C(C)(C)O2)c(F)c1 (stereo not drawn) [Compound 20]
Response line: 4.66

Prompt line: Check the records and state pIC50 for Cc1ccc(CNC(=O)c2cnn(Cc3ccc(Cn4cccn4)cc3)c2)c(F)c1 [Compound 26]
Response line: < 4.40

Prompt line: Please report pIC50 for the following compound: CC1(C)OB(C(NC(=O)c2cnn(Cc3ccc(Cn4cccn4)cc3)c2)c2cccc(Cl)c2)OC1(C)C (stereo not drawn) [Compound 19]
Response line: < 4.40
